# targetUnderTest: human GPR84 receptor (Homo sapiens, UniProt Q9NQS5)
# Construct: host or cells: HEK293 cells, transient transfection
# Sequence (Q9NQS5 whole entry): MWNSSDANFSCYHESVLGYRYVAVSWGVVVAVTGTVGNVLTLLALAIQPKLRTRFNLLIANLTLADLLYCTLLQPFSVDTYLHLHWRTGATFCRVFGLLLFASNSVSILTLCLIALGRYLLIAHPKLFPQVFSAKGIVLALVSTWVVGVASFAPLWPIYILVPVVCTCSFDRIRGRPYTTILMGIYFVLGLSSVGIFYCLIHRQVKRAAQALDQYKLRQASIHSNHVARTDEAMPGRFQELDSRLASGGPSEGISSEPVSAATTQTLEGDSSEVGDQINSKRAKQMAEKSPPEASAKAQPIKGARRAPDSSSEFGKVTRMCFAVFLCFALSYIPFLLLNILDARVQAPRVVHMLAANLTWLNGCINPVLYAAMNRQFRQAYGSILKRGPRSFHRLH
# procedureSummary: Gαi biosensor BRET assay in HEK293 cells transfected with GPR84, stimulated with the GPR84 agonist ZQ-16
# Assay type: cell-based
# conditionSummary: 200 nmol/L ZQ-16
Quick reference for IC50 among some compounds

Reference set (3 entries):
O=C(Cn1cc(-c2ncc(C#CC3CC3)cc2OC2CC2)nn1)N1CC[C@H](O)C1 [Compound I-244] :: 1000 to 3000 nM
CCc1cc(C#CCNS(C)(=O)=O)ccc1-c1cn(CC2OCC(C)(C)CO2)nn1 [Compound I-1] :: 300 to 1000 nM
c1ncc(-c2cnc(-c3cn(CC4OCC5(CC5)CO4)nn3)c(OC3CC3)c2)[nH]1 [Compound I-228] :: ≤ 300 nM

Please find the next compound below.
The compound identified as c1cc(-c2cnc(-c3cn(CC4OCC5(CC5)CO4)nn3)c(OC3CC3)c2)n[nH]1 [Compound I-235] registered its IC50 at ≤ 300 nM
